B1: library; numbered along this chain (parent)
chain: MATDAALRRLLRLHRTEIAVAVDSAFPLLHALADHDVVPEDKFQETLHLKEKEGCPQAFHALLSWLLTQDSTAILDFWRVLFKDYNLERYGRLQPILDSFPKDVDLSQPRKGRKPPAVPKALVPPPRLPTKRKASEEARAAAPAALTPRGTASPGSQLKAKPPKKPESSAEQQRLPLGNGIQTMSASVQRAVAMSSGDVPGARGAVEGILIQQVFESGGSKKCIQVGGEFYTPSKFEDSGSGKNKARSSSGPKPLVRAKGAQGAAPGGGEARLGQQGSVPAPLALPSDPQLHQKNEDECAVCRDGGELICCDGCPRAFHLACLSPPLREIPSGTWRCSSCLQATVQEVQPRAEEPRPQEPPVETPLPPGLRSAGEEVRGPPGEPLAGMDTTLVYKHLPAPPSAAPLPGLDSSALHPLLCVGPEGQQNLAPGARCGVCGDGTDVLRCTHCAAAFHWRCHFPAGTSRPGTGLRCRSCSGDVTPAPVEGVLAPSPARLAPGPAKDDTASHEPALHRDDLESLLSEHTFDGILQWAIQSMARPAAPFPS

Variants of: B1
Assay: AIRE transcriptional activation functional score (insulin promoter-GFP; nonsense median 0, synonymous median 1) (normalised score); higher = higher AIRE activity (more reporter activation)
Settings: with insulin promoter-GFP reporter in HEK293
So basically: AIRE transcriptional activation functional score at 0.3 or higher? That is met. Lower than 0.3? That is not met.

Reported AIRE transcriptional activation functional score reaches at least 0.3 for "L255F" ?
met

Now this one: "E45D"
not met

Would you kindly repeat that for "L63K" ?
not met

Also "P154H" , if possible.
not met

Now try "E517I" .
not met

# iterate: "L488I"
met

And for "V301A" ?
met

Input "V436L"
met

Entry to check: "G469L"
met

Item: "E522Q"
met

Same question for "A281Y" please.
met

Same question for "D442L" please.
not met

Queued: "D312K"
not met

What would you report for "C434F" ?
not met

Try the variant "P509V"
met

And the next one, "T334W" ?
met

Query "R351Y" next
met

Input "V38S"
not met

Another: "P422L"
met

Here is the next variant: "A352H"
met

Do the same for "C314V" please
met

Now the variant "Q275V"
met
